- METHOD: Half life in human at 10 mg/kg, po by HPLC method
- DETAILS: in vivo
METRIC: half-life (h)
// return numeric value only (unit: h, not printed)

For the compound "C[C@H]1Cc2c([nH]c3cc(Cl)c(F)cc23)[C@@]2(N1)C(=O)Nc1ccc(Cl)cc12" , what half-life is on record? 24

###

- METHOD: Elimination half life in Plasmodium falciparum
- Format: ADME
- DETAILS: read-out: beta t1/2 (converted)
METRIC: half-life
Put your answer as a value accompanied by its unit after it.

For the compound "CC(=O)N1CCN(c2ccc(CN(C(=O)/C=C/c3ccc(C(C)(C)C)cc3)[C@@H](Cc3ccccc3)C(=O)N3CCN(Cc4ccc(C#N)cc4)CC3)cc2)CC1" , what half-life is on record? 7.7 h

###

- METHOD: Elimination half life in human
- Assay type: ADME
- DETAILS: read-out: beta t1/2 (converted)
METRIC: half-life (h)
// return numeric value only (unit: h, not printed)

For the compound "Cc1nc(Nc2ncc(N3CCN(C)[C@H](C)C3)c(Nc3cc(C)n(C)n3)n2)cc(C2CC2)c1F" , what half-life is on record? 50

###

- METHOD: Plasma protein binding in human
- Format: ADME, cell-free
- DETAILS: read-out: PPB (converted)
METRIC: fraction unbound
Hey, just send me the number, nothing else.

For the compound "C[C@H]1Cc2c([nH]c3cc(Cl)c(F)cc23)[C@@]2(N1)C(=O)Nc1ccc(Cl)cc12" , what fraction unbound is on record? 0.003

###

- Tested on: Plasmodium falciparum
- METHOD: Antiplasmodial activity against asexual stage Plasmodium falciparum assessed as reduction in parasitic growth
- Format: functional, organism-based
METRIC: pIC50
Friendly reminder that pIC50 comes from taking -log10 of the concentration in mol/L.

For the molecule "C[C@H]1[C@H](N2CCS(=O)(=O)CC2)O[C@@H]2O[C@@]3(C)CC[C@H]4[C@H](C)CC[C@@H]1[C@@]24OO3" , what pIC50 is on record? 8.92

###

- METHOD: Oral bioavailability in Sprague-Dawley rat at 5 mg/kg by LC-MS/MS analysis
- Format: ADME, organism-based
- DETAILS: in vivo
METRIC: bioavailability (%)
// return numeric value only (unit: %, not printed)

For the compound "C[C@H]1Cc2c([nH]c3cc(Cl)c(F)cc23)[C@@]2(N1)C(=O)Nc1ccc(Cl)cc12" , what bioavailability is on record? 22.6

###

- METHOD: Cmax in human at […], po and measured up to 72 hrs by LC-MS/MS analysis
- Type: ADME, organism-based
- Parameters: time < 72 hrs, route po
- DETAILS: in vivo
METRIC: Cmax (ng/mL)
// return numeric value only (unit: ng/mL, not printed)

For the compound "C[C@H]1Cc2c([nH]c3cc(Cl)c(F)cc23)[C@@]2(N1)C(=O)Nc1ccc(Cl)cc12" , what Cmax is on record? 2090

###

- Tested on: Plasmodium falciparum
- METHOD: Antiplasmodial activity against Plasmodium falciparum 3D7A in NOD-SCID IL2Rgamma mouse model assessed as reduction in plasmodial growth
- Assay type: functional
Reported ED90 values for the following compounds.
// return numeric value only (unit: mg/kg, not printed)

Example entries begin here.
CCc1nc(N)nc(N)c1-c1ccc(Cl)cc1; 0.9
C[C@H]1[C@H](OC(=O)CCC(=O)O)O[C@@H]2O[C@@]3(C)CC[C@H]4[C@H](C)CC[C@@H]1[C@@]24OO3 [ARTESUNATE]; 11.1
CCN(CC)CCCC(C)Nc1ccnc2cc(Cl)ccc12 (centres undefined); 4.3

// next item, ED90 requested
Find ED90 (Plasmodium falciparum) for the entry "N#Cc1cc(NC(=O)[C@H]2c3ccccc3C(=O)N(CC(F)(F)F)[C@@H]2c2cccnc2)ccc1F" 1.9

Just for reference, ChEMBL document CHEMBL5380879 is where these values come from.
